Tested on: NCI-H226 lung
Assay Name: NCI tumour cell line growth inhibition, 48 h
List of TGI values.
Measurement Label: TGI

[[record]]
molecule = "COc1ccc(C(=O)/C=C/c2cc(-c3ccc4c(c3)OCO4)n[nH]2)cc1OC"
assay_value = "11.2 µM"

[[record]]
molecule = "O=C1O[C@H]2C3C4CCC(C4[C@@H]2I)[C@H]13 (stereo partly specified)"
assay_value = "> 100 µM"

[[record]]
molecule = "O=C1CCCC(O)=C1SC1=C(O)CCCC1=O"
assay_value = "> 100 µM"

[[record]]
molecule = "CNc1ccc([N+](=O)[O-])c2c(NCCCN(C)C)ccnc12"
assay_value = "> 100 µM"

[[record]]
molecule = "O=C(O)c1cn(C2CC2)c2cc(N3CCNCC3)c(F)cc2c1=O"
assay_value = "> 100 µM"

[[record]]
molecule = "NC(=O)c1sc(-n2cnc3ccc(C(F)(F)F)cc32)cc1OCc1ccccc1Br"
assay_value = "18.6 µM"

